assay: self-splicing fitness, log relative to wild type (ln ratio); higher = more splicing; Tetrahymena group I intron in knt gene, E. coli kanamycin selection, DiMSum; sequences stand for … in CUCUCU…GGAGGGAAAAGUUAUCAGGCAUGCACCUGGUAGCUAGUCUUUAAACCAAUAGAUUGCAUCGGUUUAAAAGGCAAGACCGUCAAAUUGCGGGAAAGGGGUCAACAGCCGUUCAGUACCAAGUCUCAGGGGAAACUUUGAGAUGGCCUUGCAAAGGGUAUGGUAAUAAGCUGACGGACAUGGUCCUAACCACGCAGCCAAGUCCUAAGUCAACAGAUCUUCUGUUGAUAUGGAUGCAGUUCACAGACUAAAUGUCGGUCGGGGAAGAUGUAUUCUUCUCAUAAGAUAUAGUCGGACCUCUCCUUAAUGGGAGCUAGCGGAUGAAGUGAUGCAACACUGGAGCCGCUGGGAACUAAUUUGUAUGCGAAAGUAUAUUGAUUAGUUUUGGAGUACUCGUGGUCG; conditions: 30 °C;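 also: selection with 25 µg/mL kanamycin versus none on LB agar overnight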
# self-splicing fitness (ln) >= -3 gives true, anything below gives false

# sequence-entry, assigned-category
data = [
    ("AUCUAGCAAUAUUACGACAG", "false"),
    ("CAAUAGCAAUAUUACGAGCA", "true"),
    ("CCUUAGCAAUAUUACGGCAC", "false"),
    ("CAAUAGCAAUAUUACGGUGC", "false"),
    ("GAGGAGCAAUAUUACGAUAU", "true"),
    ("GGCCAGCAAUAUUACGGCUA", "true"),
    ("UGGUAGCAAUAUUACGUACU", "true"),
    ("CGGAAGCAAUAUUACGCUGC", "true"),
    ("UCGCAGCAAUAUUACGGAGG", "false"),
    ("CCAUAGCAAUAUUACGCCUU", "false"),
    ("UCGCAGCAAUAUUACGAGGG", "true"),
    ("AGAGAGCAAUAUUACGUUCG", "true"),
    ("AGAUAGCAAUAUUACGCAUC", "true"),
    ("AUUCAGCAAUAUUACGUGUG", "true"),
    ("GAUGAGCAAUAUUACGAAGA", "false"),
    ("GCACAGCAAUAUUACGUGAU", "true"),
    ("UCGAAGCAAUAUUACGUGAU", "true"),
    ("CUGAAGCAAUAUUACGGUGA", "false"),
    ("AGAGAGCAAUAUUACGAACA", "true"),
    ("CUAUAGCAAUAUUACGCAUU", "false"),
    ("CCGCAGCAAUAUUACGCCAG", "true"),
    ("ACAAAGCAAUAUUACGUCCA", "true"),
    ("GAACAGCAAUAUUACGGCCA", "true"),
    ("GUUUAGCAAUAUUACGGACG", "true"),
    ("UUCCAGCAAUAUUACGAACA", "true"),
]

====

assay: self-splicing fitness, log relative to wild type (ln ratio); higher = more splicing; Tetrahymena group I intron in knt gene, E. coli kanamycin selection, DiMSum; sequences stand for … in CUCUCU…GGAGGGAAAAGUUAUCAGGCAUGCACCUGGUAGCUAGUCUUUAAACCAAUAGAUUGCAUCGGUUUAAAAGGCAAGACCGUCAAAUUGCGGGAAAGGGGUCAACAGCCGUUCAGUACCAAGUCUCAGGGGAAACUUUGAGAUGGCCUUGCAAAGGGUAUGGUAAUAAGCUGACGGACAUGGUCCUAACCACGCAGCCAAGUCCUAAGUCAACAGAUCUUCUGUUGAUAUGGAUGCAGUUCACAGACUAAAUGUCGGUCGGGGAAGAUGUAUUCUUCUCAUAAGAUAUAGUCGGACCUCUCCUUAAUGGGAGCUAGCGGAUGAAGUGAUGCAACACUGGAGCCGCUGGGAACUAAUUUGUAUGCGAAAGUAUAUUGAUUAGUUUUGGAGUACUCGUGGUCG; conditions: 37 °C
observable: self-splicing fitness (ln)

# sequence-entry, value-reported
records = [
    ("UUAAAGCAAUAUUACGGUAC", -1.06),
    ("UUCGAGCAAUAUUACGCGAC", -1.18),
    ("UGUAAGCAAUAUUACGUUCC", -0.21),
    ("GCAAAGCAAUAUUACGGACG", 0.261),
    ("CUCUAGCAAUAUUACGGUCG", -0.933),
    ("CUACAGCAAUAUUACGUUCG", 0.0364),
    ("GAACAGCAAUAUUACGAUAC", -0.127),
    ("ACUCAGCAAUAUUACGGGGA", -0.173),
    ("CUCAAGCAAUAUUACGUUAG", -1.47),
    ("CUCAAGCAAUAUUACGGCAG", -0.745),
    ("GGUCAGCAAUAUUACGGUCA", 0.518),
    ("AGGUAGCAAUAUUACGCCUA", -0.197),
    ("UUCCAGCAAUAUUACGUUAA", 0.606),
    ("UAACAGCAAUAUUACGCGGG", -1.18),
    ("GGCUAGCAAUAUUACGAGGG", -2.27),
    ("CGAGAGCAAUAUUACGAGUG", -0.803),
    ("GACUAGCAAUAUUACGCGAG", -1.28),
    ("GGCGAGCAAUAUUACGGCUC", -0.815),
    ("GCUUAGCAAUAUUACGUCUC", 0.386),
    ("CCUAAGCAAUAUUACGUCGA", -2.77),
    ("AUUAAGCAAUAUUACGCUGA", -0.862),
    ("GAUUAGCAAUAUUACGCAGG", -0.28),
    ("CAUCAGCAAUAUUACGCCCG", 0.0609),
    ("CGACAGCAAUAUUACGUAGC", -2.21),
    ("CUCUAGCAAUAUUACGCGGA", -1.9),
    ("CUUUAGCAAUAUUACGCUUC", -2.32),
    ("GCUGAGCAAUAUUACGAGUG", -1.2),
    ("CUGGAGCAAUAUUACGGGUG", -0.251),
    ("CAAUAGCAAUAUUACGGAGC", -2.53),
    ("UACCAGCAAUAUUACGGCAA", 0.462),
    ("AAGCAGCAAUAUUACGCGUG", -2.25),
    ("GCUGAGCAAUAUUACGGGUA", -1.15),
    ("ACAUAGCAAUAUUACGAGAG", -2.55),
    ("AAACAGCAAUAUUACGCCCC", -0.801),
    ("CACGAGCAAUAUUACGUCUG", -0.929),
    ("UGGUAGCAAUAUUACGCGCA", 0.351),
    ("CUCCAGCAAUAUUACGGGAU", -1.18),
    ("UAAGAGCAAUAUUACGUGUU", -2.96),
    ("CGAGAGCAAUAUUACGCUUC", -1.61),
    ("GAGCAGCAAUAUUACGAGAG", -2.19),
    ("GUAGAGCAAUAUUACGAGAA", -1.72),
    ("UAUCAGCAAUAUUACGCAGG", 0.028),
    ("CAGAAGCAAUAUUACGCAUA", -2.02),
    ("CGCAAGCAAUAUUACGGAUU", -1.5),
]

====

# self-splicing fitness (ln) listing for each entry below
assay: self-splicing fitness, log relative to wild type (ln ratio); higher = more splicing; Tetrahymena group I intron in knt gene, E. coli kanamycin selection, DiMSum; sequences stand for … in CUCUCU…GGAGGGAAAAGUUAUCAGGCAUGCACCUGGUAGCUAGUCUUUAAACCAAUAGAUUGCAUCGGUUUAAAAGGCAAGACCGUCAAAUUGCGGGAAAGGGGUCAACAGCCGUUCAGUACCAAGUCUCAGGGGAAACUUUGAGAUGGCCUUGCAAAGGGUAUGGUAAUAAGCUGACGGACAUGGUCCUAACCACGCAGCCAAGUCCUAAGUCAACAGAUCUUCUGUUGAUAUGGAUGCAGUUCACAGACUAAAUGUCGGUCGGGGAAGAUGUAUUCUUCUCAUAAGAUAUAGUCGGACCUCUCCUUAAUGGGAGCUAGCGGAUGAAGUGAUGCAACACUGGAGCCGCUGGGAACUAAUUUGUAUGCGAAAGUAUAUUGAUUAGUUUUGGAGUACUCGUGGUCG; conditions: 30 °C

# sequence-entry, self-splicing fitness (ln)
measured = [
    ("CUGUAGCAAUAUUACGGGGA", -2.67),
    ("CGUUAGCAAUAUUACGGGCC", -1.91),
    ("AACCAGCAAUAUUACGUUGA", -1.65),
    ("GACUAGCAAUAUUACGCAGA", -2.34),
    ("GACUAGCAAUAUUACGCGUG", -1.44),
    ("GGCAAGCAAUAUUACGUAUC", -0.35),
    ("GCGAAGCAAUAUUACGAGGG", -3.77),
]
